These data points were gathered from patent US20230322908A1.

Reported koff values for a set of binders
- tested-target: T1, TP-51 peptide (aa 352-414 of SEQ ID NO:1) (human)
- T1 construct: Synthetic peptide (Pepscan)
- T1 peptide: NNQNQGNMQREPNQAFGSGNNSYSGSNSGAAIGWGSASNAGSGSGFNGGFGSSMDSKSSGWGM
- run-description: SPR 8K, mAb captured, TP-51 injected
Please respond with the number in s⁻¹ and leave the unit unwritten.

- binder: "hACI-7069-633B12-Ab1_H16L14 (IgG4) (antibody, V domains shown) VH: EVQLVQSGAEVKKPGASVKVSCKASGFTFTEYSMHWVRQAPGQRLEWMGGINPGNAGTSYNQKFKGRVTITVDTSASTAYMELSSLRSEDTAVYYCARESWGQGTTVTVSS VL: DVVMTQSPLSLPVTLGQPASISCKSSQSLLHSDAKTYLNWLQQRPGQSPRRLIYLVSKLDSGVPDRFSGSGSGTDFTLKISRVEAEDLGVYYCFQGTHFPHTFGQGTKLEIK"
  units: "s⁻¹"
  koff: 0.0013

Exam item: Recall and state the measured koff for hACI-7069-633B12-Ab1_H19L14 (IgG4) (antibody, V domains shown) VH: QVQLVQSGAEVKKPGASVKVSCKTSGFTFTEYSMHWVRQAPGQRLEWIGGINPGNAGTSYNQKFKGRVTITVDTSASTAYMELSSLRSEDTAVYYCARESWGQGTTVTVSS VL: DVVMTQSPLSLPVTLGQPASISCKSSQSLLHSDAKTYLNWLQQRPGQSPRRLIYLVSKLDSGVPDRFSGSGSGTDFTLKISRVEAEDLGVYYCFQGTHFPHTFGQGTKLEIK .
Marked response: 0.0011
